Data origin: PubChem BioAssay (NCI)

Tested on: MDA-MB-435
Test protocol: NCI tumour cell line growth inhibition, 48 h
Quantity name: TGI

Here are 5 molecules together with their reported answers.
O=C1NCC2(CCN(CCCC3(c4ccc(F)cc4)OCCO3)CC2)N1c1ccccc1 :: > 100 µM
COc1cccc2c(=O)oc(-c3ccc(C(C)(C)C)cc3)nc12 :: > 100 µM
Cc1cn(C2CC(O)C(CO)O2)c(=O)[nH]c1=O (configuration not stated) :: > 5000 µM
O=C(/C=C/c1ccncc1)c1cc(Cl)ccc1O :: 41 µM
Cc1ccc(S(=O)(=O)Nc2ccccc2C(=O)c2ccc(C)c(C)c2)cc1 :: > 100 µM

# input for lookup
Would you mind telling me what TGI value was observed for Cc1ccc2c(c1)C(=O)C1(Cc3ccccc3C1=O)C2 (configuration not stated) ?
> 100 µM

----------
System: CCRF-CEM leukemia
Test protocol: NCI tumour cell line growth inhibition, 48 h; in the data active = GI50 below about 0.43 µM; inactive = the rest
Could you please pick one outcome from this set? active, inactive

As a guide, the following entries are already answered.
O=C(CCc1nnc2sc(-c3ccc(Cl)cc3Cl)nn12)c1nc2ncccc2[nH]1 :: inactive
Cc1cc(/C=C/c2ccc3cc(N(C)C)ccc3[n+]2C)c(C)n1-c1ccccc1 :: active
Fc1cc2[nH]ncc2c2c3c(c(-c4cn[nH]c4)nc12)CCCC3 :: inactive

Check the results log: what was the call for CCN1CCN(c2nc(C)cc(N(CCNc3ccnc4cc(Cl)ccc34)Cc3ccc4c(c3)OCO4)n2)CC1 ?
inactive

----------
Test system: SF-295 CNS
Test protocol: NCI tumour cell line growth inhibition, 48 h
Each entry below lists one item and its recorded TGI value.
Express your answer in µM, writing the number without its unit.

O=[N+]([O-])c1ccc(Oc2c(Cl)cc(S(=O)(=O)/N=C(\NO)Nc3ccc(Cl)cc3)cc2Cl)cc1 :: 27.3
OCCc1ccsc1-c1sc(-c2cc(CCO)c(-c3sccc3CCO)s2)cc1CCO :: 30.3
O=C(CCc1nnc2sc(-c3ccc(Cl)cc3Cl)nn12)c1nc2ncccc2[nH]1 :: 3.44
CC(=O)[C@@]12O[C@@H]1CC1C3CCC4=CC(O)CCC4(C)C3CCC12C (some centres undefined) :: 56.5

# input for lookup
Would you mind telling me what TGI value was observed for COc1cc(/C=C2\CN(S(=O)(=O)c3ccccc3)C/C(=C\c3cc(CN4CCCC4)c(O)c(OC)c3)C2=O)cc(CN2CCCC2)c1O ?
3.64

----------
Test system: OVCAR-4 ovarian
Test protocol: NCI tumour cell line growth inhibition, 48 h
Each entry below lists one item and its recorded TGI value.

O=C(/C=C\c1ccc(Cl)c(Cl)c1)c1ccc(Cl)cc1Cl :: 88.7 µM
COc1cccc2c1OC1(C=C2)Oc2ccccc2C(=O)N1C (stereo not given) :: > 100 µM
Cc1ccccc1S(=O)(=O)OC1NS(=O)(=O)c2ccccc21 (stereo not given) :: > 100 µM
O=C(CC(C(=O)c1ccsc1)c1ccc2c(c1)OCO2)c1ccccc1 (stereo not given) :: > 100 µM
COc1cc2c(c(OC)c1OC)-c1ccc(OC)c(=O)cc1C(NC(=O)c1ccc(N=[N+]=[N-])cc1)CC2 (stereo not given) :: > 100 µM

Would you mind telling me what TGI value was observed for N=Nc1c(OC(=O)Nc2cccc(Cl)c2)[nH]c2ccccc12 ?
19.6 µM

Would you mind telling me what TGI value was observed for COc1cc(C2c3cc4c(cc3OC(NN)C2C)OCO4)cc(OC)c1OC (stereo not given) ?
> 100 µM

Would you mind telling me what TGI value was observed for NS(=O)(=O)c1cc(Br)c(N=Nc2ccc(O)c3ncccc23)c(Br)c1 ?
> 100 µM

Would you mind telling me what TGI value was observed for O=c1cc(-c2ccccc2)oc2cc(OCCCOc3ccc4c(=O)cc(-c5ccccc5)oc4c3)ccc12 ?
> 100 µM

Would you mind telling me what TGI value was observed for CN1CSC(=S)N(c2c3ccccc3nc3ccc(Br)cc23)C1 ?
25.7 µM
